# Target of assay: soluble human FcRn (Homo sapiens, UniProt P55899)
# Construct: made in house; host or cells: Chinese hamster ovary (CHO) cells, glutamine synthetase expression system
# Sequence (P55899 24-297): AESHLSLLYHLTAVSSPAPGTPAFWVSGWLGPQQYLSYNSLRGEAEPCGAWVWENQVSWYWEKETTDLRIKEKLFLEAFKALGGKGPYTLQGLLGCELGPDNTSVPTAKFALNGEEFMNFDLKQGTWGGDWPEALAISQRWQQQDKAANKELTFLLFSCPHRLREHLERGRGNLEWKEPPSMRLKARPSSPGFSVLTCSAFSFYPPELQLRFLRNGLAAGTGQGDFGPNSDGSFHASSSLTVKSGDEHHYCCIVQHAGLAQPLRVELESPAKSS
# Sequence (P61769 21-119, further chain): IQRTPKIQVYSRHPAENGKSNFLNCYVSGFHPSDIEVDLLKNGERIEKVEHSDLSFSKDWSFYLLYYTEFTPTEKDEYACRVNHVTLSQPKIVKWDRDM
# Method summary: Equilibrium binding constants (KD) by surface plasmon resonance (Biacore)
# Study conditions: pH 6
Non-standard residues stand in square brackets, D forms with d. No end group written: not given here. βAla = NCCC(=O)O

{"Substance": "QRFCGHF[βAla]LYPCNGP (cysteine pairing not given here) [Peptide No. 25]", "Target of assay": "soluble human FcRn (Homo sapiens, UniProt P55899)", "Kd": "> 250 µM"}
